Origin of values: the supplement of paper PMC10883282

Tested on: SW684
Assay: relative viability vs DMSO control (72 h) (fraction); higher = more viable cells
Settings: 0.1235 µM
Note to self: relative viability under 1 means Condition met, ties and anything higher get Condition not met.

Solved entries (count: 5):
Query :: Confirm or reject: relative viability of CC(=O)c1c(C)c2cnc(Nc3ccc(N4CCNCC4)cn3)nc2n(C2CCCC2)c1=O [Palbociclib] lies strictly below 1
Result :: Condition not met

Query :: Consider next the compound O=C(c1ccc(F)c(F)c1Nc1ccc(I)cc1F)N1CC(O)([C@@H]2CCCCN2)C1 [Cobimetinib] in the same way.
Result :: Condition met

Query :: Consider next the compound CNC(=O)c1c(C)oc2cc(Oc3ncnc4cc(OC)c(OC)cc34)ccc12 [Fruquintinib] in the same way.
Result :: Condition not met

Query :: Consider next the compound COC(=O)c1ccc2c(c1)NC(=O)/C2=C(\Nc1ccc(N(C)C(=O)CN2CCN(C)CC2)cc1)c1ccccc1 [Nintedanib] in the same way.
Result :: Condition not met

Query :: Consider next the compound O=C(/C=C\n1cnc(-c2cc(C(F)(F)F)cc(C(F)(F)F)c2)n1)NNc1cnccn1 [Selinexor] in the same way.
Result :: Condition met

Next:
Query :: Confirm or reject: relative viability of CNC(=O)c1cccc2cc(Oc3ccnc4cc(OCC5(N)CC5)c(OC)cc34)ccc12 [Lucitanib] lies strictly below 1
Result :: Condition not met

Query :: Consider next the compound Cn1cnc2c(F)c(Nc3ccc(Br)cc3Cl)c(C(=O)NOCCO)cc21 [Selumetinib] in the same way.
Result :: Condition met

Query :: Consider next the compound C=CC(=O)N1CCC(CNc2ncnc(N)c2-c2ccc(Oc3ccccc3)cc2)CC1 [Evobrutinib] in the same way.
Result :: Condition not met

====

Test system: RD
Assay: relative viability vs DMSO control (72 h) (fraction); higher = more viable cells
Conditions: 0.04115 µM
measured_attribute: relative viability

Query :: Can you share its relative viability? I mean this compound: CNC(=O)c1c(C)oc2cc(Oc3ncnc4cc(OC)c(OC)cc34)ccc12
Result :: 1.08

Next:
Query :: Can you share its relative viability? I mean this compound: Cc1[nH]c(/C=C2\C(=O)Nc3ccccc32)c(C)c1CCC(=O)O [Orantinib]
Result :: 1.09

Query :: Consider next the compound CO[C@H]1C[C@@H]2CC[C@@H](C)[C@@](O)(O2)C(=O)C(=O)N2CCCC[C@H]2C(=O)O[C@H]([C@H](C)C[C@@H]2CC[C@@H](OC(=O)C(C)(CO)CO)[C@H](OC)C2)CC(=O)[C@H](C)/C=C(\C)[C@@H](O)[C@@H](OC)C(=O)[C@H](C)C[C@H](C)/C=C/C=C/C=C/1C in the same way.
Result :: 0.755

Query :: Consider next the compound O=C1CCc2c(Oc3ccc4c(c3)[C@@H]3[C@H](O4)[C@H]3c3nc4cc(C(F)(F)F)ccc4[nH]3)ccnc2N1 in the same way.
Result :: 1.13

Query :: Consider next the compound CN(C)C(=O)c1cc2cnc(Nc3ccc(N4CCNCC4)cn3)nc2n1C1CCCC1 in the same way.
Result :: 1.05

Query :: Consider next the compound CN(C)C/C=C/C(=O)Nc1cc2c(Nc3ccc(F)c(Cl)c3)ncnc2cc1O[C@H]1CCOC1 in the same way.
Result :: 1.07

Query :: Consider next the compound Cc1c2oc3c(C)ccc(C(=O)N[C@@H]4C(=O)N[C@H](C(C)C)C(=O)N5CCC[C@H]5C(=O)N(C)CC(=O)N(C)[C@@H](C(C)C)C(=O)O[C@@H]4C)c3nc-2c(C(=O)N[C@@H]2C(=O)N[C@H](C(C)C)C(=O)N3CCC[C@H]3C(=O)N(C)CC(=O)N(C)[C@@H](C(C)C)C(=O)O[C@@H]2C)c(N)c1=O in the same way.
Result :: 0.21

Query :: Consider next the compound O=C(c1ccc(F)c(F)c1Nc1ccc(I)cc1F)N1CC(O)([C@@H]2CCCCN2)C1 in the same way.
Result :: 0.766

Query :: Consider next the compound CC(=O)c1c(C)c2cnc(Nc3ccc(N4CCNCC4)cn3)nc2n(C2CCCC2)c1=O in the same way.
Result :: 1.09

Query :: Consider next the compound COc1cc2ncnc(Nc3ccc(F)c(Cl)c3)c2cc1OCCCN1CCOCC1 in the same way.
Result :: 1.01
